For each of the compounds below, state its IC50.
Target: human PDGFRβ (Homo sapiens (Human), UniProt P09619)
Sequence (P09619 561-1106): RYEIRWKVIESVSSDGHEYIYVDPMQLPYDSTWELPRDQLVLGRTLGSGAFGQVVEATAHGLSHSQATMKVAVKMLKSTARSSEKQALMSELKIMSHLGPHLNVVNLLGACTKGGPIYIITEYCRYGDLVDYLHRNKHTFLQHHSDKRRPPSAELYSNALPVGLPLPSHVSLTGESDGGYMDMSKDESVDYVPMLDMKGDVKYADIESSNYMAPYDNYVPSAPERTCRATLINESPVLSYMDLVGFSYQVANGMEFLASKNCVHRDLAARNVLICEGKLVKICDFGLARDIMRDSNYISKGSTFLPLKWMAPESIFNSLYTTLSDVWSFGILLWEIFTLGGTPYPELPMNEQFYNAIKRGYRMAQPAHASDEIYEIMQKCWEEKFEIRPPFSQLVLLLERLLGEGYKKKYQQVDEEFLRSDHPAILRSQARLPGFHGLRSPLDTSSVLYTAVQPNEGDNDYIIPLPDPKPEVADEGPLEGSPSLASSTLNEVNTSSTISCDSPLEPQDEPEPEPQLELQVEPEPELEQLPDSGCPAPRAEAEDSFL
Protocol Summary: PDGFRβ kinase assay (PDGFRβ-HTRF)
Assay type: biochemical
Condition Info: 10 μM ATP; some mean values from multiple determinations
Give the number first and the unit second.

## Input Reported IC50 for human PDGFRβ (Homo sapiens (Human), UniProt P09619), given CCN(CC)Cc1ccc2c(c1)NC(=O)c1c(Nc3cc(O)ccc3C)ccnc1N2 ?
## Output 1.86 nM

## Input Queued: Cc1ccc(O)cc1Nc1ccnc2c1C(=O)Nc1cc(CNC3CCS(=O)(=O)C3)ccc1N2 (stereo not drawn)
## Output 3.6 nM

## Input Next entry: CCOCCC(C)NCc1ccc2c(c1)NC(=O)c1c(Nc3cc(O)ccc3C)ccnc1N2 (stereo not drawn)
## Output 4.02 nM

---

Target: human PDGFRβ (Homo sapiens (Human), UniProt P09619)
Protocol Summary: PDGFRβ kinase assay (PDGFRβ-HTRF)
Format: biochemical
Condition Info: 10 μM ATP; some mean values from multiple determinations
Readout: pIC50
# pIC50 = -log10(concentration in molar units)

## Input Sample CCCC1CCN(Cc2ccc3c(c2)NC(=O)c2c(Nc4cc(O)c(C)cc4F)ccnc2N3)CC1 — what was its pIC50?
## Output 8.19

## Input CNCc1ccc2c(c1)NC(=O)c1c(Nc3cc(O)ccc3C)ccnc1N2 , same question.
## Output 8.55

## Input Also check Cc1cc(F)c(Nc2ccnc3c2C(=O)Nc2cc(C(=O)N[C@H]4CC[C@H](O)CC4)ccc2N3)cc1O
## Output 8.61

## Input And the next one, Cc1ccc(O)cc1Nc1ccnc2c1C(=O)Nc1cc(CNc3ccc4[nH]cnc4c3)ccc1N2 ?
## Output 7.91

## Input What would you report for Cc1ccc(O)cc1Nc1ccnc2c1C(=O)Nc1cc(CNCc3ccccc3)ccc1N2 ?
## Output 8.24

## Input Would you mind doing Cc1cc(F)c(Nc2ccnc3c2C(=O)Nc2cc(CN4CC(=O)N(C(C)C)C(C)(C)C4)ccc2N3)cc1O as well?
## Output 8.03

## Input What about this compound? Cc1cc(F)c(Nc2ccnc3c2C(=O)Nc2cc(CNC(CO)C(C)C)ccc2N3)cc1O (racemic)
## Output 9.08

## Input Again, but for CCCOC1CCCN(Cc2ccc3c(c2)NC(=O)c2c(Nc4cc(O)c(C)cc4F)ccnc2N3)C1 (racemic)
## Output 8.73

Ref: patent US10047096B2
